Tested on: Escherichia coli TOP10;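 further: peptides expressed intracellularly from a pBAD plasmid library in pooled LB shake-flask culture, induced with 0.3% L-arabinose, DNA abundance read by NGS, three biological replicates, DESeq2 with apeglm shrinkage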
assay overview: shrunken log2 fold change of peptide-encoding DNA abundance (4.5 h post-induction vs induction); higher = less antimicrobial activity (less host growth inhibition)
reported conditions: time post-induction: 4.5 h; library: site-saturation at positions 5, 18, 19, 20
# label = condition met if shrunken log2 fold change >= -0.1 else condition not met

The examples below pair each entry with its known result.
In [3]: df
Out[3]:
       biopolymer_sequence     assigned_label
0  RRIRFRPPRLPRPRPRPCSHPRP  condition not met
1  RRIRCRPPRLPRPRPRPENWPRP      condition met
2  RRIRYRPPRLPRPRPRPRDKPRP  condition not met
3  RRIRRRPPRLPRPRPRPIKAPRP      condition met
4  RRIRERPPRLPRPRPRPQWGPRP  condition not met
5  RRIRMRPPRLPRPRPRPDATPRP      condition met

--- query ---
## Input Given `RRIRLRPPRLPRPRPRPFRMPRP` , state whether its shrunken log2 fold change is at least -0.1.
## Output condition met

Entry source: the supplement of paper PMC9112550
